# test-system: HA of ca A/Sydney/5/97 (H3N2) virus (influenza A virus)
# experiment: cell-based or functional assay
observed-property: Neutralization IC50, H3-Syd97 (µg/mL)
Only the number, expressed in µg/mL, is required.

| binder | Neutralization IC50, H3-Syd97 (µg/mL) |
| --- | --- |
| Antibody 13 (antibody, V domains shown) VH: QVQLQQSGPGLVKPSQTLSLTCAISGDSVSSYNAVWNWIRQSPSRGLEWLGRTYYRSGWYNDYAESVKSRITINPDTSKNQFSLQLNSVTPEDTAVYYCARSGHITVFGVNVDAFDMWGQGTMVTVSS VL: DIQMTQSPSSLSASVGDRVTITCRTSQSLSSYDHWYQQKPGKAPKLLIYAASSRLSGVPSRFSGSGSGTDFTLTISSLQPEDFATYYCQQSRTFGQGTKVEIK | 2.18 |
| Antibody 14 (antibody, V domains shown) VH: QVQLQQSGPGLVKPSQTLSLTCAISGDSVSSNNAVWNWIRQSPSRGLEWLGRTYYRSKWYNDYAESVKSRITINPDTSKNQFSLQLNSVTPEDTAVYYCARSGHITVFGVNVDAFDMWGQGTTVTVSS VL: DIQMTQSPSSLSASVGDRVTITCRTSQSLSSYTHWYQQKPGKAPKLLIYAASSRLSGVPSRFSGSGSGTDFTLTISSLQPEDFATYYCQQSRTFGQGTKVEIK | 1.82 |

Now look at this one.
Incoming: Requested read-out: Neutralization IC50, H3-Syd97. Entry: Antibody 15 (antibody, V domains shown) VH: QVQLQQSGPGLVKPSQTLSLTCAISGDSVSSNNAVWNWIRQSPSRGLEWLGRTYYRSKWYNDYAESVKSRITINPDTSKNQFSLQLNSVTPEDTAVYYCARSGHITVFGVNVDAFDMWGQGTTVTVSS VL: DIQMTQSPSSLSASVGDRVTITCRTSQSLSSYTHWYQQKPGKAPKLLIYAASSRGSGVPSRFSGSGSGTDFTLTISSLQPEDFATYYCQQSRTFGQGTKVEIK
Outgoing: 1.79
